System: DU-145
procedure_summary: NCI tumour cell line growth inhibition, 48 h
Active and inactive are the calls of the source. Cut-off read from the data, not from the text of the source: active = GI50 up to about 1.1 µM and inactive = higher.
Log the outcome using a class from active, inactive

compound=COc1nc(N)nc2nc[nH]c12 system_under_test=DU-145 cat=inactive
compound="S=C1NC2=C(COC/C2=C\\c2ccccc2Cl)C(c2ccccc2Cl)N1 (configuration not stated)" system_under_test=DU-145 cat=inactive

stdin: # fetch the recorded call for "Cc1ccc(/N=N/C(=N/NC(=O)c2ccccc2)c2ccc(N(CCC#N)CCC#N)cc2C)cc1" here
stdout: inactive

###

System: A549
procedure_summary: NCI tumour cell line growth inhibition, 48 h
Calls of active or inactive are those of the source. Cut-off read from the data, not from the text of the source: active = GI50 up to about 1.1 µM and inactive = higher.
Below: a set of entries, each annotated with reported GI50.

Consider the reported GI50 for these molecules:
molecule=C#CCOCn1cnc2c(S)ncnc21 recorded_result="> 100 µM (inactive)"
molecule=OCCCN=C1CCCCC1 recorded_result="> 100 µM (inactive)"
molecule="C/C(=N\\O)C(CN1CCCCC1)C(c1ccccc1)c1c(O)c2ccccc2oc1=O (configuration not stated)" recorded_result="> 100 µM (inactive)"
molecule=CCN(CCCN(CC)C(=O)N[C@@H](Cc1ccccc1)C(=O)NC)C(=O)N[C@@H](Cc1ccccc1)C(=O)NC recorded_result="> 100 µM (inactive)"
molecule=CC(=O)Nc1ccc(-c2nc3ccccc3s2)cc1Cl recorded_result="99.8 µM (inactive)"

stdin: Would you mind telling me what GI50 value was observed for "O=c1nc2sc3ccc4ccccc4c3n2nc1O" ?
stdout: > 100 µM (inactive)

stdin: Likewise for "CCc1nn(CN2CCN(C)CC2)c(=S)n1/N=C\c1ccc(-c2ccc([N+](=O)[O-])cc2)o1" ?
stdout: 36.2 µM (inactive)

###

Test system: M14
procedure_summary: NCI tumour cell line growth inhibition, 48 h
The source made the active and inactive calls. No stated cut-off is given here; in the data, active = GI50 up to about 1.1 µM and inactive = higher.
Below: a set of entries, each annotated with reported GI50.

Consider the reported GI50 for these molecules:
molecule=Cc1c(C)c2cc3c(=O)ccoc3c(C)c2oc1=O reported_endpoint=GI50 recorded_result="> 100 µM (inactive)"
molecule=NCS(=O)(=O)O reported_endpoint=GI50 recorded_result="> 100 µM (inactive)"

The record that follows has no GI50 shown yet.
stdin: Would you mind telling me what GI50 value was observed for O=C(CC(C(=O)c1ccsc1)c1cccs1)c1ccccc1 (stereo not drawn) ?
stdout: 69.2 µM (inactive)

###

System: SN12C
procedure_summary: NCI tumour cell line growth inhibition, 48 h
Calls of active or inactive are those of the source. No stated cut-off is given here; in the data, active = GI50 up to about 1.1 µM and inactive = higher.
reported_endpoint: GI50

compound=Oc1ccccc1-c1cnnc(-c2ccccc2O)c1 system_under_test=SN12C reported_endpoint=GI50 recorded_result="30.3 µM (inactive)"
compound=CCOc1ccc(/N=C/c2c3ccccc3nc3ccccc23)cc1 system_under_test=SN12C reported_endpoint=GI50 recorded_result="> 100 µM (inactive)"
compound="O=c1[nH]c(=O)n(C2CC(O)C(CO)O2)cc1OC/C=C/Cc1ccccc1 (configuration not stated)" system_under_test=SN12C reported_endpoint=GI50 recorded_result="> 100 µM (inactive)"
compound=Cn1c(=O)c(Br)c(C=O)n(CCO[N+](=O)[O-])c1=O system_under_test=SN12C reported_endpoint=GI50 recorded_result="4.34 µM (inactive)"
compound=COc1ccc(/N=C/c2ccc(N(CCC#N)S(=O)(=O)c3ccccc3)cc2)cc1 system_under_test=SN12C reported_endpoint=GI50 recorded_result="> 100 µM (inactive)"

stdin: Lab note: need GI50 for "CCOC(=O)c1c(NC(=O)c2ccccc2)sc2c1CCCC2" on SN12C, anyone have it?
stdout: > 100 µM (inactive)

stdin: Likewise for "CN(C)C/C=C(/c1ccc(Br)cc1)c1cccnc1" ?
stdout: > 100 µM (inactive)

Data credit: ChEMBL document CHEMBL1201862
